Consider the following molecules; for each one, report its Ratio Ki.
TARGET_SYSTEM: MMP-2/MMP-9 (Homo sapiens) (UniProt P08253+P14780)
PROTOCOL_DESCRIPTION: Selectivity ratio of Ki for human recombinant MMP-9 catalytic domain to Ki for human recombinant MMP-2
Reply with the value as a number alone.

Query the reported Ratio Ki for MMP-2/MMP-9 (Homo sapiens) (UniProt P08253+P14780); item: CC(C)NC(=O)Oc1ccc(Oc2ccc(S(=O)(=O)CC3CS3)cc2)cc1 (stereo not given) 20

Subsequent entry: CCCNC(=O)Oc1ccc(Oc2ccc(S(=O)(=O)CC3CS3)cc2)cc1 (stereo not given) 20

Subsequent entry: CCNC(=O)Nc1ccc(Oc2ccc(S(=O)(=O)CC3CS3)cc2)cc1 (stereo not given) 20

Subsequent entry: CCCOC(=O)Nc1ccc(Oc2ccc(S(=O)(=O)CC3CS3)cc2)cc1 (stereo not given) 2

Subsequent entry: COC(=O)Nc1ccc(Oc2ccc(S(=O)(=O)CC3CS3)cc2)cc1 (stereo not given) 2

Subsequent entry: CCCNC(=O)Nc1ccc(Oc2ccc(S(=O)(=O)CC3CS3)cc2)cc1 (stereo not given) 20

Subsequent entry: CNC(=O)Oc1ccc(Oc2ccc(S(=O)(=O)CC3CS3)cc2)cc1 (stereo not given) 20

Subsequent entry: CCNC(=O)Oc1ccc(Oc2ccc(S(=O)(=O)CC3CS3)cc2)cc1 (stereo not given) 20

Subsequent entry: CCCOC(=O)Oc1ccc(Oc2ccc(S(=O)(=O)CC3CS3)cc2)cc1 (stereo not given) 2

Subsequent entry: CC(C)OC(=O)Oc1ccc(Oc2ccc(S(=O)(=O)CC3CS3)cc2)cc1 (stereo not given) 2
